Molecular target: SpAbp1-D1
Test: SPOT peptide array binding signal intensity (averaged, normalized) (arbitrary units (background-subtracted, floor 0; scale differs between SH3 domains)); higher = stronger binding of the SH3 domain to the peptide
MEASURED ENDPOINT: SPOT peptide array binding signal intensity

- KNRKNLPTIPIRLSG: 1210
- MPAPPPPPPPPPGAF: 7
- GATNNAPTLPKRKNP: 102
- SRQAIPPPVPNRPGG: 17
- EVTPKVPERPSRRKT: 130
- QQEQNTPPLPPKPKS: 23.5
- KKAPPPVVKPKPRNF: 2160
